Biological target: UniProt:P41968
Sequence (P41968 whole entry): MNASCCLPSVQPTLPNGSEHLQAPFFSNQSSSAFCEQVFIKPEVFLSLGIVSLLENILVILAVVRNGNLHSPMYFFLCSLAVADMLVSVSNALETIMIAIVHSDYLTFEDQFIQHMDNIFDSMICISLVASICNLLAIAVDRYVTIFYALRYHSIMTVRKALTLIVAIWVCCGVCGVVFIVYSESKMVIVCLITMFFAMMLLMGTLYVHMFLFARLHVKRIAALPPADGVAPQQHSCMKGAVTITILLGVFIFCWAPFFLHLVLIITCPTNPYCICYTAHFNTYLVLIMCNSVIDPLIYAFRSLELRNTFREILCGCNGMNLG
Test: Competitive inhibition assay using [I^125]-NDP-α-MSH, hMC3-R membranes
Format: binding
Design: expressed in transfected cells
Conditions: read-out: Ki (nM) (NDP-α-MSH) In Normal System, MC3-R
outcome.measure: Ki

> print(dat)
                                   compound  target.or.system  outcome.measure  test.value
1  C[C@@H]1CN(C(=O)[C@H](N)Cc2ccc3ccccc3c2)[C@@H](CCCNC(=N)N)CN1C(=O)Cc1ccc2ccccc2c1 [Example 33]    UniProt:P41968               Ki      596 nM
2  CC(=O)N[C@H](Cc1ccc(C)cc1C)C(=O)N1C[C@@H](C)N(C(=O)Cc2ccc3ccccc3c2)C[C@@H]1CCCNC(=N)N [Example 30]    UniProt:P41968               Ki      232 nM
3  CC(=O)N[C@H](Cc1ccc(Cl)cc1C)C(=O)N1C[C@@H](C)N(C(=O)Cc2ccc3ccccc3c2)C[C@@H]1CCCNC(=N)N [Example 31]    UniProt:P41968               Ki      136 nM

Next compound, please.
UniProt:P41968 / Ki / CC(=O)N[C@H](Cc1ccc2ccccc2c1)C(=O)N1C[C@@H](C)N(C(=O)Cc2ccc3ccccc3c2)C[C@@H]1CCCNC(=N)N [Example 32] : value?
634 nM

###

Below is a list of entries, each paired with its recorded inhibition at 1 µM value.
Molecular target: MC1-R (Mus musculus, UniProt Q01727)
Construct: B-16 mouse melanoma cells (containing MC1-R); endogenous in cells
Sequence (Q01727 whole entry): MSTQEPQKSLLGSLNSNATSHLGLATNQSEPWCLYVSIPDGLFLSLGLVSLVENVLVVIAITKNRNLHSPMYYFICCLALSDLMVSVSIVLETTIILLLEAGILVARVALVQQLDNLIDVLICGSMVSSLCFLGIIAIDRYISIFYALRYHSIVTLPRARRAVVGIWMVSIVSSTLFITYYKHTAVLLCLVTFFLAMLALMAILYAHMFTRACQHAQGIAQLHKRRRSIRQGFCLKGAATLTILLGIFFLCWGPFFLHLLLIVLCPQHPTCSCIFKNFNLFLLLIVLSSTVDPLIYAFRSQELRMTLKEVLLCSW
Test: Competitive inhibition assay using [I^125]-NDP-α-MSH, B-16 mouse melanoma cell membranes
Format: binding
Conditions: 1 μM test compound; read-out: Inhibition at 1 μM (NDP-α-MSH) In Normal System, MC1-R
Positions of bridges follow the written chain, without caps; N, C: chain ends. Non-standard residues stand in square brackets, D forms with d. Residues, ends and D or L forms follow the SMILES beside them. 1Nal = N[C@@H](Cc1cccc2ccccc12)C(=O)O; Nle = CCCC[C@H](N)C(=O)O
The reply should be a number in %, with the unit left off.

Here are 3 molecules together with their reported answers.
molecule	u	inhibition at 1 µM
CCCC[C@H](NC(C)=O)C(=O)N[C@H]1CC(=O)NCCCC[C@@H](C(=O)NCC)NC(=O)[C@H](Cc2cccc3ccccc23)NC(=O)[C@H](CCCNC(=N)N)NC(=O)[C@@H](Cc2ccccc2)NC(=O)[C@H](Cc2c[nH]c3ccccc23)NC1=O [Example 38] (Ac-[Nle]DW[dF]R[1Nal]K-NHEt; lactam 2-7)	%	98
CCCC[C@H](NC(C)=O)C(=O)N[C@H]1CC(=O)NCCCC[C@@H](C(=O)N(C)C)NC(=O)[C@H](Cc2cccc3ccccc23)NC(=O)[C@H](CCCNC(=N)N)NC(=O)[C@@H](Cc2ccccc2)NC(=O)[C@H](Cc2c[nH]c3ccccc23)NC1=O [Example 36] (Ac-[Nle]DW[dF]R[1Nal]K-NMe2; lactam 2-7)	%	71
CC(=O)N[C@H](Cc1ccc2ccccc2c1)C(=O)N1C[C@@H](CC(C)C)N(CCc2ccc3ccccc3c2)C[C@@H]1CCCNC(=N)N [Example 12]	%	0

Next molecule, please.
MC1-R (Mus musculus, UniProt Q01727) / inhibition at 1 µM / Cc1ccc(CCN2C[C@H](CCCNC(=N)N)N(C(=O)[C@H](N)Cc3ccc4ccccc4c3)C[C@H]2C)cc1 [Example 5] : value?
32

Data credit: patent US20090081197A1
